test system: wild pansy (VIOTR, Viola tricolor); test: Postemergence greenhouse trial, herbicidal efficacy on wild pansy; format: in vivo; settings: Viola tricolor, post-emergence, 528 h; applied alone at 35 g/ha, postemergence, scored 20-22 d; read-out: Obs, % visual injury, VIOTR
Here the recorded pest or weed control at 35 g/ha is given for each entry.
readout_type: pest or weed control at 35 g/ha (%)

• Nc1c(F)c(-c2ccc3cc[nH]c3c2F)nc(C(=O)OCc2ccccc2)c1Cl = 40
• COC(=O)c1nc(-c2ccc3ccn(C(=O)C(C)(C)C)c3c2F)c(F)c(N)c1Cl = 40
• COC(=O)c1nc(-c2ccc3ccn(C(=O)C(C)C)c3c2F)c(F)c(N)c1Cl = 60
• CCOC(=O)c1nc(C(Cl)(Cl)Cl)n(-c2ccc(Cl)cc2Cl)n1 [fenchlorazole-ethyl, reference compound] = 0
• Nc1c(F)c(-c2ccc3cc[nH]c3c2F)nc(C(=O)O)c1Cl = 64
• COCC(=O)n1ccc2ccc(-c3nc(C(=O)OC)c(Cl)c(N)c3F)c(F)c21 = 30

###

test system: lambsquarters (CHEAL, Chenopodium album); experiment: Postemergence greenhouse trial, herbicidal efficacy on lambsquarters; type: in vivo; settings: post-emergence, 528 h, applied alone at 35 g/ha, postemergence, rated after 20-22 d, read-out: % visual injury, Obs, CHEAL
readout_type: pest or weed control at 35 g/ha (%)

- COCC(=O)n1ccc2ccc(-c3nc(C(=O)OC)c(Cl)c(N)c3F)c(F)c21: 100
- Nc1c(F)c(-c2ccc3cc[nH]c3c2F)nc(C(=O)OCc2ccccc2)c1Cl: 97
- COC(=O)c1nc(-c2ccc3ccn(C(=O)C(C)C)c3c2F)c(F)c(N)c1Cl: 97
- COC(=O)c1nc(-c2ccc3ccn(C(=O)C(C)(C)C)c3c2F)c(F)c(N)c1Cl: 100
- Nc1c(F)c(-c2ccc3cc[nH]c3c2F)nc(C(=O)O)c1Cl: 100
- CCOC(=O)c1nc(C(Cl)(Cl)Cl)n(-c2ccc(Cl)cc2Cl)n1 [fenchlorazole-ethyl, reference compound]: 0

###

test system: sorghum (SORVU, Sorghum bicolor); experiment: Postemergence greenhouse trial, herbicidal efficacy on sorghum; assay type: in vivo; conditions: applied alone at 35 g/ha, scored 20-22 d
# Obs, % visual injury, SORVU per entry
readout_type: Obs, % visual injury, SORVU (%)

• Nc1c(F)c(-c2ccc3cc[nH]c3c2F)nc(C(=O)OCc2ccccc2)c1Cl [compound 2] = 70
• CCOC(=O)c1nc(C(Cl)(Cl)Cl)n(-c2ccc(Cl)cc2Cl)n1 [fenchlorazole-ethyl, reference compound] = 0
• CCOC(=O)C1=NN(c2ccc(Cl)cc2Cl)C(C)(C(=O)OCC)C1 (stereo not shown) [mefenpyr-diethyl, reference compound] = 0
• COC(=O)c1nc(-c2ccc3ccn(C(=O)C(C)(C)C)c3c2F)c(F)c(N)c1Cl [compound 5] = 60

###

Form field: pest or weed control at 35 g/ha (one value per entry).
test system: chickweed (STEME, Stellaria media); experiment: Postemergence greenhouse trial, herbicidal efficacy on chickweed; format: in vivo; settings: post-emergence, 528 h, applied alone at 35 g/ha, postemergence, rated after 20-22 d, read-out: % visual injury, Obs, STEME
readout_type: pest or weed control at 35 g/ha (%)

• COC(=O)c1nc(-c2ccc3ccn(C(=O)C(C)(C)C)c3c2F)c(F)c(N)c1Cl [compound 5] = 85
• CCOC(=O)c1nc(C(Cl)(Cl)Cl)n(-c2ccc(Cl)cc2Cl)n1 [fenchlorazole-ethyl, reference compound] = 0
• COCC(=O)n1ccc2ccc(-c3nc(C(=O)OC)c(Cl)c(N)c3F)c(F)c21 [compound 6] = 97
• COC(=O)c1nc(-c2ccc3ccn(C(=O)C(C)C)c3c2F)c(F)c(N)c1Cl [compound 4] = 93
• Nc1c(F)c(-c2ccc3cc[nH]c3c2F)nc(C(=O)OCc2ccccc2)c1Cl [compound 2] = 100
• Nc1c(F)c(-c2ccc3cc[nH]c3c2F)nc(C(=O)O)c1Cl [compound 1] = 100
